Origin of the recorded values: the supplement of paper PMC9170038

- System: MS2 coat protein
- assay.overview: apparent KD of MS2 coat protein; designed switch direction (-1 OFF switch, 1 ON switch): -1; higher = weaker reporter binding
- conditions.used: Eterna round: R95; input ligand: FMN 200 uM
apparent KD of MS2 coat protein vs 0.09 µM: at or above is Condition met, below is Condition not met.

INSERT INTO measurements (sequence_code, category_label) VALUES
  ('UUUAAUUUUUUUUUUUUACAAGCUUUUUGCUCGUCUUAUACAUGAGGAUCACCCAUGUGGGUGAAAGAUAGAUUGUC [JMF''s solution 3] (puzzle: Sensor v3, turn-off variant 2)', 'Condition not met'),
  ('ACUAUUAGAGGAUAUACAGUUUAUUACAUGAGGAUCACCCAUGUUCUUCAAUGUAUAUAAGUAGAAGGCUAAGGAA [EX-5 Malc#3] (puzzle: Exclusion 5)', 'Condition met'),
  ('UUUUUAGUGCUUUUUAAGUACAUGAGGAUCACCCAUGUACUUGUCUGGUGGUCCGGACAAGCUUUUUGCUCGUCUAG [Sensor v3 - turn-off variant 1 - 3] (puzzle: Sensor v3, turn-off variant 1)', 'Condition not met'),
  ('CUGAGCAGACGGAGAUCCAACAUGAGGAUCACCCAUGUCUCAUAAGCUUUUUGUUCAUCUUAUUGUACCUUGGUGCU [JL ViennaUCT Edcesobi mod 4] (puzzle: Sensor v3, turn-off variant 1)', 'Condition met');
